# METHOD_DESCRIPTION: basal RPMI8226 mitochondrial membrane potential changes, profiling panel, cell-based, JC-1 fluorescence, 24 h, 100 nL compound (AID 1169); also: test concentration not given here
# RUN_CONDITIONS: RPMI8226 myeloma, JC-1 mitochondrial potential fluorescence, higher = more signal
VALUE_KIND: z-score

>>> df
                                   molecule  experimental_value
0  CC(=O)OC(C/C=C\B1OC(C)(C)C(C)(C)O1)c1ccccc1 (centres undefined)              -0.457
1  Cc1ccc(S[C@]2(C(=O)NC3CC3)CC(=O)N(Cc3ccccc3C(F)(F)F)[C@@H]2c2ccc(CO)cc2I)cc1              -0.513
2  NCCCCCCNC(=O)[C@@H]1C[C@@H]2C(=O)N[C@@H](Cc3ccccc3)C(=O)N2[C@@H]1c1ccc(O)cc1              0.0478
3  C=C(CCCC)/C(=C/C[C@@H](OC(=O)c1ccncc1)c1ccc(OCCO)cc1)c1cnc2ccccc2c1              -0.344

* * *

Quick reference for z-score among some molecules
# METHOD_DESCRIPTION: E. coli acrAB mutant growth effects, primary screen, E. coli filamentation inducers, strain DRC39, OD650, 48 h (AID 1179);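 also: screen aims at cell division blockers that make cells filament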
# RUN_CONDITIONS: E. coli DRC39 delta-acrAB growth, higher = more signal, called active from +8 up or from −8 down
VALUE_KIND: z-score

In [3]: df
Out[3]:
                                   molecule  experimental_value
0  CC(C)CNC(=O)[C@@H]1c2ccccc2C(=O)N(Cc2ccc(OC(F)(F)F)cc2)[C@H]1c1ccc(CO)cc1                 1.5
1  COCCCNC(=O)[C@@]1(C)c2ccccc2C(=O)N(Cc2cc(F)cc(C(F)(F)F)c2)[C@H]1c1ccc(CO)cc1               0.359
2  CCCCCN1CC=CC23O[C@@H]4/C=C\CCC(C)OC(=O)C4[C@H]2C(=O)N(CCCO)[C@@H]3C1=O (stereo partly drawn)                1.11
3  C=C(C1=CCN(S(=O)(=O)c2ccc(C)cc2)C1)[C@@H](OC(C)=O)[C@@H]1CCCN1S(=O)(=O)c1ccccc1[N+](=O)[O-]                1.38
4  Cc1ccc(N2C(=O)c3ccccc3[C@](C)(C(=O)NCC(F)(F)F)[C@@H]2c2ccc(CO)cc2)nc1               0.536
5  C=C(CCCC)/C(=C/C[C@H](OC(=O)c1ccncc1)c1ccc(CO)o1)c1cnc2ccccc2c1                1.01
6  COC(=O)C1=CC(c2ccc(CO)cc2)=CC(C2CC2)N(C)C=C1C(=O)OC (stereo not drawn)                1.28
7  O=C(NCC(F)(F)F)[C@@H]1c2ccccc2C(=O)N(C2Cc3ccccc3C2)[C@H]1c1ccc(CO)cc1               0.249

* * *

# TARGET_OR_TEST_SYSTEM: E3 ubiquitin-protein ligase XIAP (Homo sapiens)
# METHOD_DESCRIPTION: XIAP binders, primary screen, biophysical, small-molecule microarray, fluorescence 635 nm (AID 1181);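 also: score merges 667 nm emission and signal to noise over triplicate slides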
# RUN_CONDITIONS: small-molecule microarray binding, higher = more signal
Parameter threshold = -0.1. Response is fulfilled when composite z-score meets or exceeds it, else not fulfilled.

COMPOUND	ASSIGNED_CATEGORY
COc1ccc(/C=C/C(=O)c2cccc(OCC(=O)OC(C)(C)C)c2)cc1	fulfilled
CC(C)(C)OC(=O)CC[C@@]12N=C(c3ccc(OCCCO)cc3)O[C@@H]1c1ccccc1CN(Cc1ccccc1)C2=O	fulfilled
O=C1O[C@H](c2ccccc2)[C@H](c2ccccc2)N2[C@H]1[C@@H](C(=O)NC[C@H](O)c1ccccc1)[C@]1(C(=O)Nc3ccc(C#CC4(O)CCCCCC4)cc31)[C@H]2c1ccc(O)cc1	not fulfilled
Cc1ccc(N2C(=O)c3ccccc3[C@](C)(C(=O)NCC(F)(F)F)[C@@H]2c2ccc(CO)cc2)nc1	fulfilled
C/C=C/[C@@H](CCn1cc(CCO[Si](C(C)C)(C(C)C)C(C)C)nn1)[Si](C)(C)c1ccc(OC)cc1	not fulfilled
CCOC(=O)C[C@H]1[C@H](OC(=O)c2cc3ccccc3oc2=O)[C@@H](NC(=O)c2ccccc2)c2cc(OCCCO)ccc2N1C(=O)Cc1ccc(OC)cc1	not fulfilled
COCCOC(=O)N1C(=O)[C@@]2(c3cc(C#CC4(O)CCCCCC4)ccc31)[C@H](C(=O)NC[C@H](O)c1ccccc1)[C@H]1C(=O)O[C@H](c3ccccc3)[C@H](c3ccccc3)N1[C@@H]2c1ccccc1OCCO	not fulfilled
NC(=O)N1C(=O)C2C(C1=O)C1C=C(c3ccc(CO)cc3)C2C(C2CC2)N1Cc1cc2c(cc1Br)OCO2 (centres undefined)	not fulfilled
C=C(CCCC)/C(=C/C[C@H](OC(=O)c1ccncc1)c1ccc(CO)o1)c1cnc2ccccc2c1	not fulfilled
CC(C)C(=C=CC[C@H](O)c1ccc(OCCO)cc1)C[C@H](O)COCc1ccccc1	fulfilled
C=CCN1C(=O)[C@@]2(O[C@@H](CCn3cc(CCO)nn3)[C@H]([Si](C)(C)c3ccc(OC)cc3)[C@H]2C)c2cc(NC(=O)c3ccc(OC)cc3)ccc21	not fulfilled
[N-]=[N+]=NCc1ccccc1C[C@@]1(C(=O)O)N=C(c2ccc(OCCCO)cc2)O[C@@H]1c1ccccc1	fulfilled
CCCCCN1CC=CC23O[C@@H]4/C=C\CCC(C)OC(=O)C4[C@H]2C(=O)N(CCCO)[C@@H]3C1=O (some centres undefined)	fulfilled
COC(=O)c1c2oc(c1C(=O)OC)C(=O)N[C@@H](C(C)C)Cn1nncc1C1(CCCCC1)NC(=O)N[C@H](CO)CC2	fulfilled

* * *

# TARGET_OR_TEST_SYSTEM: Focal adhesion kinase 1 (Homo sapiens)
# METHOD_DESCRIPTION: small-molecule microarray binders of FAK, primary screen, biochemical, 635/667 nm fluorescence, BSA, DTT (AID 1130);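 also: composite of spot emission at 667 nm and signal to noise over triplicate slides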
# RUN_CONDITIONS: PTK2 binding, 635 nm fluorescence, higher = more signal
Threshold check on composite z-score: at or above 0.3 gives fulfilled, strictly below gives not fulfilled.

COMPOUND	ASSIGNED_CATEGORY
C=C(COC)C(=O)CC[C@H](OC(=O)c1cccnc1)c1cccc(OCCO)c1	fulfilled
C[N+](C)(C)CCCC[C@@H]1NC(=O)[C@@H]2C[C@H](C(=O)NCCCCCNC(=O)CS)[C@H](c3ccc(O)cc3)N2C1=O	not fulfilled
COCCCNC(=O)[C@@]1(Cc2ccccc2CN=[N+]=[N-])COC(c2ccc(OCCCO)cc2)=N1	fulfilled
O=C(NC1CC1)[C@@H]1c2ccccc2C(=O)N(Cc2ccccc2C(F)(F)F)[C@H]1c1ccc(CO)cc1	fulfilled
COC(=O)C1=CC(CCCO)=CC(C2CC2)N(Cc2cc3c(cc2Br)OCO3)C=C1C(=O)OC (stereo not drawn)	not fulfilled
O=C(O)[C@H]1C[C@H]2C(=O)N[C@@H](Cc3ccccc3)C(=O)N2[C@H]1c1ccc(O)cc1	not fulfilled
COCCOC(=O)N1C(=O)[C@@]2(c3cc(C#CC4(O)CCCCCC4)ccc31)[C@H](c1ccccc1OCCO)N1[C@H](c3ccccc3)[C@H](c3ccccc3)OC(=O)[C@H]1[C@@H]2C(=O)Nc1nc2ccccc2s1	fulfilled
CN1C=C(C(=O)OCCS(C)(=O)=O)C(C(=O)OCCS(C)(=O)=O)=CC(CCCO)=CC1c1cccs1 (stereo not drawn)	not fulfilled

* * *

# TARGET_OR_TEST_SYSTEM: Albumin (Bos taurus) (UniProt P02769)
# Sequence (P02769 whole entry, looked up): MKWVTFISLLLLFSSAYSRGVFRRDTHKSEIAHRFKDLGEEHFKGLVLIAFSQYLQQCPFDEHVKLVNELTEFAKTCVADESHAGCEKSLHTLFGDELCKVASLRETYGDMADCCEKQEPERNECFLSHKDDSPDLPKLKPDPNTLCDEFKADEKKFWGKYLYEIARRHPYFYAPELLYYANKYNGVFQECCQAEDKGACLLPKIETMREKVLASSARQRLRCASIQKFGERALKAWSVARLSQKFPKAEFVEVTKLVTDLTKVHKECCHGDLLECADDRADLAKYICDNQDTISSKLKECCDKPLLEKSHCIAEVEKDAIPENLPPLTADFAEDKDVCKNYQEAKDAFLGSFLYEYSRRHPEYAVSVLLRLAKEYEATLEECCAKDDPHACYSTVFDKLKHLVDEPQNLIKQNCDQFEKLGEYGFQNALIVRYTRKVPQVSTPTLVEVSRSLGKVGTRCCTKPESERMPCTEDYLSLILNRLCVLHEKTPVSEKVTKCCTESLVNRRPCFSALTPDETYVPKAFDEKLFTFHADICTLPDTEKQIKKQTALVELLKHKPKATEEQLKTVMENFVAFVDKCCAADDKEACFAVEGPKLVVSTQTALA
# METHOD_DESCRIPTION: bovine serum albumin binders on microarray, profiling panel, artefact control for SMM control protein annotation, biochemical, small-molecule microarray, Alexa647 label, 635/667 nm fluorescence (AID 1118);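 also: score merges 667 nm emission intensity and signal-to-noise per printed compound spot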
# RUN_CONDITIONS: BSA-A647 binding, fluorescence 635 nm, higher = more signal

MOLECULE	composite z-score
COc1ccc(C(=O)Nc2cccc(CN3C(=O)[C@@]4(O[C@@H](CCO)[C@H]([Si](C)(C)c5ccc(OC)cc5)[C@H]4C)c4ccccc43)c2)cc1	0.558
CCCNC(=O)[C@@]1(Sc2ccc(C)cc2)CC(=O)N(Cc2cc(C(F)(F)F)cc(C(F)(F)F)c2)[C@@H]1c1ccc(CO)cc1I	0.502
C#CCN1C(C(=O)OCC)OC[C@H]1c1ccccc1 (stereo partly drawn)	-0.0202
COCCCN1C(=O)[C@@]2(Cc3ccccc31)c1ccccc1C(=O)N(Cc1ccccc1Cl)[C@H]2c1ccc(CO)cc1	-0.538
C=CCC(OC(C)=O)[C@@H]1[C@@H](N(Cc2cccc3ccccc23)C(=O)c2cccc3ccccc23)c2cc(OCCCO)ccc2N1C(=O)Cc1ccc(OC)cc1 (stereo partly drawn)	0.107
CC(C)NC(=O)[C@@H]1c2ccccc2C(=O)N(Cc2cc(F)cc(C(F)(F)F)c2)[C@H]1c1ccc(CO)cc1	-0.448
C=C(COC)/C(=C/C[C@H](OC(C)=O)c1cccc(OCCO)c1)c1cc(C(=O)OC)ccc1OC	-0.169
C=CC[C@@]1(C(=O)NCc2ccccc2)N=C(c2ccc(OCCCO)cc2)O[C@@H]1c1ccccc1	0.864

Where do these numbers come from? They come from PubChem BioAssay.
